# reported average fluorescence intensity; entries follow
- system.tested: T1, human 4-1BB, full length, on transfected cells (human, UniProt Q07011 24-255)
- T1 construct: whole, on cells; also called CHOK1-h4-1BB
- experiment.description: FACS, CHOK1-h4-1BB cells; Ab 0.00064 ug/ml

[
  {
    "binder": "52F4G2 (antibody, V domains shown) VH: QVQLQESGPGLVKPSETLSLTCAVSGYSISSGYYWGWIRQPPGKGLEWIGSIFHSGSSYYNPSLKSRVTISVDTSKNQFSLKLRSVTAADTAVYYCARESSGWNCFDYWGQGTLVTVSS VL: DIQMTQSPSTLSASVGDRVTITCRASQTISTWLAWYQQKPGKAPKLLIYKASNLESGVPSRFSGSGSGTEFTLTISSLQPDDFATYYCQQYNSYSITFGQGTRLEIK",
    "average fluorescence intensity / MFI": 11.7
  },
  {
    "binder": "172E3E3 (antibody, V domains shown) VH: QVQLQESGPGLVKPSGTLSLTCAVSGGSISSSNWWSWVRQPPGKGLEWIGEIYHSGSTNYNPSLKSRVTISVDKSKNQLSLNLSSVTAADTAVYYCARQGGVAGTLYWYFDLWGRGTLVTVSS VL: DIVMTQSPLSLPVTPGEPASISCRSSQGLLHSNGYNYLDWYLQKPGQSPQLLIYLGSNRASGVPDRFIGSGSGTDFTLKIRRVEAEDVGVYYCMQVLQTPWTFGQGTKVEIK",
    "average fluorescence intensity / MFI": 49.5
  }
]
